Test system: PV1-NLuc
Test name: microbe, parasite or virus in culture
Format: cell-based, type 1 poliovirus
Conditions used: Enterovirus C, FRhK-4, 16 h, read-out: IC50, PV1-NLuc replication
pIC50: −log10 of the molar value.
Readout name: pIC50

The reported pIC50 value, PV1-NLuc, for COC1=C2C[C@@H](C)C[C@H](OC)[C@H](O)[C@@H](C)/C=C(\C)[C@H](OC(N)=O)[C@@H](OC)/C=C\C=C(/C)C(=O)NC(=CC1=O)C2=O reads < 5.00

====

Test system: Huh-7.5.1 cells
Conditions used: 10 µM
Below, each of the compounds is paired with its reported Viability Percent DMSO value.
# number only, unit Percent DMSO dropped from output

Below are worked cases with known answers.
# Compound, Viability Percent DMSO / Percent DMSO
rows = [
    ("NC(=O)c1ncn([C@@H]2O[C@H](CO)[C@@H](O)[C@H]2O)n1 [Ribavirin]", 117),
    ("NCCCNCCCCNCCCN [Spermine]", 112),
    ("CC(C)CN(C[C@@H](O)[C@H](Cc1ccccc1)NC(=O)O[C@H]1CO[C@H]2OCC[C@H]21)S(=O)(=O)c1ccc(N)cc1 [Darunavir]", 106),
]

Recorded Viability Percent DMSO (compound C=C1CC[C@@H]2[C@](C)(COC(=O)CCC(=O)[O-])[C@H](OC(=O)CCC(=O)O)CC[C@@]2(C)[C@@H]1/C=C/C1=CCOC1=O.[K+] ): 102

Data point: Cc1c(-c2cnccn2)ssc1=S [Oltipraz] ; Viability Percent DMSO = 90

====

Test system: Huh-7.5.1 cells
Test name: Cell viability in the chemical screen (Cell TiterGlo)
Conditions used: 10 µM compound, 72 h
Hi, to clarify the labels: 1 covers Viability Percent DMSO from 100 Percent DMSO upward, 0 covers anything below 100 Percent DMSO.

# Molecule, System name, Label value
records = [
    ("O=c1[nH]c(=O)n([C@H]2C[C@H](O)[C@@H](CO)O2)cc1/C=C/Br [Brivudine]", "Huh-7.5.1 cells", 1),
]

Prompt line: Tell me whether Viability Percent DMSO is at least 100 Percent DMSO here: Cc1cc(/C=C/C#N)cc(C)c1Nc1ccnc(Nc2ccc(C#N)cc2)n1 [Rilpivirine]
Response line: 1

Prompt line: Could you verify whether the entry COC1=C2C[C@@H](C)C[C@H](OC)[C@H](O)[C@@H](C)/C=C(\C)[C@H](OC(N)=O)[C@@H](OC)/C=C\C=C(/C)C(=O)NC(=CC1=O)C2=O [Geldanamycin] shows Viability Percent DMSO of no less than 100 Percent DMSO?
Response line: 0

Prompt line: Check the entry CC(=O)Oc1c(C)c(C)c2c(c1C)CCC(C)(CCC[C@H](C)CCC[C@H](C)CCCC(C)C)O2 (stereo partly shown) [Vitamin E Acetate] : does Viability Percent DMSO equal or exceed 100 Percent DMSO?
Response line: 0

Prompt line: State whether the measured Viability Percent DMSO reaches 100 Percent DMSO, counting equality as reaching it, for CO/N=C(\C(=O)N[C@@H]1C(=O)N2C(C(=O)O)=C(COC(C)=O)CS[C@H]12)c1csc(N)n1 [Cefotaxime sodium]
Response line: 1

====

System: Huh-7.5.1 cells
Test name: Cell viability in the chemical screen (Cell TiterGlo)
Conditions used: 10 µM compound, 72 h
Recorded Viability Percent DMSO, one value per entry.
Answer format: value, then unit.

# Compound, Viability Percent DMSO
data = [
    ("COC(=O)N[C@H](C(=O)N[C@@H](Cc1ccccc1)[C@@H](O)CN(Cc1ccc(-c2ccccn2)cc1)NC(=O)[C@@H](NC(=O)OC)C(C)(C)C)C(C)(C)C [Atazanavir]", "130 Percent DMSO"),
    ("O=C(O)[C@H]1O[C@@H](Oc2cc3oc(-c4ccccc4)cc(=O)c3c(O)c2O)[C@H](O)[C@@H](O)[C@@H]1O [Baicalin]", "114 Percent DMSO"),
    ("CC(=O)Oc1ccccc1C(=O)Nc1ncc([N+](=O)[O-])s1 [Nitazoxanide]", "41 Percent DMSO"),
]

API: the following record is the query input.
Note to self: Viability Percent DMSO recorded for Oc1ccc(Cl)c2cccnc12 [Dermofongin] was 101 Percent DMSO

====

Tested on: Huh-7.5.1 cells
Test name: Cell viability in the chemical screen (Cell TiterGlo)
Conditions used: 10 µM compound, 72 h
Where a name gives a salt, the structure may show the parent alone.
# cutoff 100 Percent DMSO applies to Viability Percent DMSO; >= gives y, < gives n

# Compound, System name, Label value
measured = [
    ("CO/N=C(\\C(=O)N[C@@H]1C(=O)N2C(C(=O)O)=C(C[N+]3(C)CCCC3)CS[C@H]12)c1csc(N)n1 [Cefepime Dihydrochloride Monohydrate]", "Huh-7.5.1 cells", "y"),
    ("O=c1[nH]cnc2c1ncn2[C@H]1CC[C@@H](CO)O1", "Huh-7.5.1 cells", "y"),
    ("CCS(=O)(=O)CCn1c([N+](=O)[O-])cnc1C", "Huh-7.5.1 cells", "y"),
]

Prompt line: Please check the record COc1cc(NC(=O)Nc2cccc(CNC(=O)O[C@H]3CCOC3)c2)ccc1-c1cnco1 and state if its Viability Percent DMSO is at or above 100 Percent DMSO.
Response line: y

Prompt line: Identify whether the reported Viability Percent DMSO of the following compound is 100 Percent DMSO or greater: CC(C)c1nc(CN(C)C(=O)N[C@@H](CCN2CCOCC2)C(=O)N[C@H](CC[C@H](Cc2ccccc2)NC(=O)OCc2cncs2)Cc2ccccc2)cs1 [Cobicistat]
Response line: y

Prompt line: Could you tell me if the measured Viability Percent DMSO of O=C1CCC[C@@H]2[C@H]3CCC[N+]4([O-])CCC[C@@H](CN12)[C@@H]34 (some centres unmarked) reaches 100 Percent DMSO or more?
Response line: n

====

Test system: Huh-7.5.1 cells
Test name: Cell viability in the chemical screen (Cell TiterGlo)
Conditions used: 10 µM compound, 72 h
Counter-ions that a name gives are not always drawn.
Each entry below carries its recorded Viability Percent DMSO.
A number alone suffices; assume Percent DMSO.

# Compound, Unit abbrev, Viability Percent DMSO
measured = [
    ("CC(C)[C@H](N)C(=O)OCCOCn1cnc2c(=O)[nH]c(N)nc21 [Valacyclovir hydrochloride]", "Percent DMSO", 117),
]

Entry C[C@H](Cn1cnc2c(N)ncnc21)OCP(=O)(O)O [Tenofovir] , Viability Percent DMSO reported as 118

For this compound ( Nc1ncnc2c1ncn2[C@@H]1O[C@H](COP(=O)(O)O)[C@@H](O)[C@H]1O.O [Adenosine 5'-monophosphate monohydrate] ), measured Viability Percent DMSO is 115

In plain terms, Cc1cn([C@H]2O[C@@H](CO)[C@H](O)[C@H]2F)c(=O)[nH]c1=O [Clevudine] has a documented Viability Percent DMSO of 132

====

Listing: Viability Percent DMSO of selected molecules
Test system: Huh-7.5.1 cells
Test name: Cell viability in the chemical screen (Cell TiterGlo)
Conditions used: 10 µM compound, 72 h
Where a name gives a salt, the structure may show the parent alone.
# unit: Percent DMSO | format: bare number

Below: 5 molecules and their reported Viability Percent DMSO.
# Molecule, Value reported
records = [
    ("COC(=O)N[C@H](C(=O)N1CCC[C@H]1c1nc(-c2ccc(-c3ccc(-c4c[nH]c([C@@H]5CCCN5C(=O)[C@@H](NC(=O)OC)C(C)C)n4)cc3)cc2)c[nH]1)C(C)C [Daclatasvir dihydrochloride]", 125),
    ("O=S(=O)(CCC(F)=C(F)F)c1ncc(Cl)s1", 128),
    ("CN(C)CC[C@@H](c1ccc(Cl)cc1)c1ccccn1 [Dexchlorpheniramine Maleate]", 118),
    ("CN(C)[C@@H]1C(O)=C(C(N)=O)C(=O)[C@@]2(O)C(O)=C3C(=O)c4c(O)cccc4[C@@](C)(O)[C@H]3C[C@@H]12", 114),
    ("CC(C)OC(=O)[C@H](C)N[P@](=O)(OC[C@H]1O[C@@H](n2ccc(=O)[nH]c2=O)[C@](C)(F)[C@@H]1O)Oc1ccccc1", 130),
]

Now let's try a different one.
Given item CC1(C)CC[C@]2(C(=O)O)CC[C@]3(C)C(=CC[C@@H]4[C@@]5(C)CC[C@H](O)C(C)(C)[C@@H]5CC[C@]43C)[C@@H]2C1 , the value recorded as its Viability Percent DMSO is 118

====

System: Huh-7.5 cells
Readout name: CC50

Simply: N#Cc1ccc(COC[C@H]2O[C@@H](n3c(NCc4ccc(Cl)c(Cl)c4)nc4c(N)ncnc43)[C@H](O)[C@@H]2O)cc1 , Huh-7.5 cells, CC50 = > 10 µM

====

Test name: in vitro
Conditions used: rhesus monkey, CC50, FRhK4 cells, cellular ATP assay
Readout name: CC50 (µM)
Response body: numeric value in µM, unit text excluded.

Please fill in: CC50 reported for COC1=C2C[C@@H](C)C[C@H](OC)[C@H](O)[C@@H](C)/C=C(\C)[C@H](OC(N)=O)[C@@H](OC)/C=C\C=C(/C)C(=O)NC(=CC1=O)C2=O = 59
